The reported measurements were obtained from patent US8716303B2.

Please provide measured JAK2/JAK1 IC50 ratio for the entries that follow.
Biological target: Jak2 (a.a. 828-1132) (Homo sapiens, UniProt O60674)
Construct: Jak2 (a.a. 828-1132); His tag (N); made in house; host or cells: insect cells (baculovirus)
Sequence (O60674 828-1132): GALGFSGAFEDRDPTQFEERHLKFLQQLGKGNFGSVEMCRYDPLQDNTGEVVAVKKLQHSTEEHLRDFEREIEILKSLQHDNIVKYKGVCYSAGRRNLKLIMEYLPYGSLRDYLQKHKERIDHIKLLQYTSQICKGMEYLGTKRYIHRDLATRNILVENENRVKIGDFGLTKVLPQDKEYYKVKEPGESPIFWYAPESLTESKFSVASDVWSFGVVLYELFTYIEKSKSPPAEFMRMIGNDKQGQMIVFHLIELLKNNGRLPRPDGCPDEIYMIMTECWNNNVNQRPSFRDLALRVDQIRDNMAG
Assay: In vitro JAK kinase assay (HTRF, phosphorylation of a biotinylated peptide), JAK2, reported as JAK2/JAK1 ratio
Format: biochemical
Settings: Assay Conditions 1 mM ATP
Counter-ions that a name gives are not always drawn.
Lab note: write the figure by itself, no unit.

Returns the measured JAK2/JAK1 IC50 ratio for the input compound. Input: N#CC[C@@H]([C@H]1CCN(c2ncc(Br)s2)C1)n1cc(-c2ncnc3[nH]ccc23)cn1 [Example 47, trifluoroacetate] 6.9

Returns the measured JAK2/JAK1 IC50 ratio for the input compound. Input: CS(=O)(=O)c1nccc(N2CCC(C(CC#N)n3cc(-c4ncnc5[nH]ccc45)cn3)C2)n1 (single isomer, unassigned) [Example 25] 34

Returns the measured JAK2/JAK1 IC50 ratio for the input compound. Input: N#CC[C@@H]([C@H]1CCN(c2ncnc(C(F)F)c2C#N)C1)n1cc(-c2ncnc3[nH]ccc23)cn1 [Example 110, trifluoroacetate salt] 17.6

Returns the measured JAK2/JAK1 IC50 ratio for the input compound. Input: FCC([C@@H]1CCN(c2nc3cccnc3o2)C1)n1cc(-c2ncnc3[nH]ccc23)cn1 (stereo partly drawn) [71 (3R- enantiomer)] 5.9

Returns the measured JAK2/JAK1 IC50 ratio for the input compound. Input: N#CC[C@@H]([C@H]1CCN(c2c(F)cccc2C#N)C1)n1cc(-c2ncnc3[nH]ccc23)cn1 [Example 58, trifluoroacetate salt] 8

Returns the measured JAK2/JAK1 IC50 ratio for the input compound. Input: N#CCC(C1CCN(c2nccc(C#N)c2C#N)C1)n1cc(-c2ncnc3[nH]ccc23)cn1 (racemic) [Example 39] 15.5

Returns the measured JAK2/JAK1 IC50 ratio for the input compound. Input: N#CCC(C1CCN(c2nc3cccc(F)c3o2)C1)n1ccc(-c2ncnc3[nH]ccc23)c1 (single isomer, unassigned) [Example 158-1] 22.5

Returns the measured JAK2/JAK1 IC50 ratio for the input compound. Input: C[S+]([O-])c1nccc(N2CCC(C(CC#N)n3cc(-c4ncnc5[nH]ccc45)cn3)C2)n1 (single isomer, unassigned) [Example 24] 2.5

Returns the measured JAK2/JAK1 IC50 ratio for the input compound. Input: N#CCC(n1cc(-c2ncnc3[nH]ccc23)cn1)C1(F)CCN(c2nc3cccnc3o2)C1 (single isomer, unassigned) [31, Step 4a, enantiomer 2] 5.1

Returns the measured JAK2/JAK1 IC50 ratio for the input compound. Input: N#CCC(C1CCN(c2ncc3cc[nH]c3n2)C1)n1cc(-c2ncnc3[nH]ccc23)cn1 (single isomer, unassigned) [Example 16] 11.4
